Cited source: patent US9458101B2

System: CEM cells
Assay: Viability of 3-D CEM cell cultures in Hollow Fiber Bioreactor (HFB), trypan blue
Format: cell-based, Human
Settings: samples analysed by HPLC
Readout Name: viability of cell cultures

Record excerpt, results attached:
COc1cc2c(c(-c3cccnc3)c1OC)-c1ccc(OC)c(=O)cc1[C@@H](NC(C)=O)CC2
45%±2
COc1cc2c(c(OCc3cccnc3)c1OC)-c1ccc(OC)c(=O)cc1C(NC(=O)CNC(=O)C(F)(F)F)CC2 (stereo not shown)
35%±5
CCOc1c(OC)c(OC)cc2c1-c1ccc(OC)c(=O)cc1[C@@H](NC(=O)CNC(=O)C(F)(F)F)CC2
38%±4

Switching to the query record.
Task item: What viability of cell cultures value was documented for this compound, `CCOc1c(OC)c(OC)cc2c1-c1ccc(OC)c(=O)cc1[C@@H](NC(C)=O)CC2` ?
Reply: 50%±4
